Each item that follows carries a reported pIC50.
TARGET: T1, full length human OX40L expressed on CHO cells (human, UniProt P23510 1-183)
T1 construct: CHO K1 stably transfected as described for CAKI cells; also called CHO-hOX40L; hOX40L expressing CHO cells
T1 sequence: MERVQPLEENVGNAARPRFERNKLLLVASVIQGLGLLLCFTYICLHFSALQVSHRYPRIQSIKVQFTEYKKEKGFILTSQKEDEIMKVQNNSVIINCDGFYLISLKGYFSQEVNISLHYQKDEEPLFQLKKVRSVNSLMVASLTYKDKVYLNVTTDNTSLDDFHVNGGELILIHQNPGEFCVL
TEST_DESCRIPTION: competition FACS with hOX40/Fc on CHO-hOX40L
Note on units: pIC50 is unitless, being -log10 of a concentration expressed in mol/L.

Would you please look over these solved cases?
OX40L15B07 (VHH, monovalent Nanobody from E. coli; not shown: C-terminal c-myc and His6 tag) VHH: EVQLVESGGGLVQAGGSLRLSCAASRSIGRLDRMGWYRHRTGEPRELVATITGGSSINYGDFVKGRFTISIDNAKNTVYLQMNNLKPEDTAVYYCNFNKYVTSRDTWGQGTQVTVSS    8.70
OX40L19D08 (VHH, monovalent Nanobody from E. coli; not shown: C-terminal c-myc and His6 tag) VHH: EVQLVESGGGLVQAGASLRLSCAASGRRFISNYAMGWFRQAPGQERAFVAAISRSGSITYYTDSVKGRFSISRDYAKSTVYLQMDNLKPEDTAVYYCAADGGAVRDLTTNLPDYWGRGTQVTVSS    8.40

Consider the binder OX40L18E09 (VHH, monovalent Nanobody from E. coli; not shown: C-terminal c-myc and His6 tag) VHH: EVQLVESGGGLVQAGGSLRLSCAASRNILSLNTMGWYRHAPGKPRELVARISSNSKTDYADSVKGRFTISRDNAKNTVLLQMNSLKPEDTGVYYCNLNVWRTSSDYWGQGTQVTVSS and give its measured pIC50. 8.70
